Test: qHTS of pediatric cancer cell lines to identify multiple opportunities for drug repurposing: Primary screen for NB1643 cells (AID 1347099); note: nearly all actives have a fitted effect of over 50% in size
Details: NB1643 neuroblastoma viability, CellTiter-Glo luminescence, 48 h; series mostly up to 46 µM
Records with an inconclusive call do not appear. Activity calls are given as the source filed them. Calls come from the whole dose curve; as a rule, active = well fitted cell-killing curve with a large enough effect; inconclusive = small, poorly fitted or top-dose-only effect; inactive = no such curve, though single readings can be large or run the other way.
Assign a class; possible classes are true (1) for active, false (0) for inactive

COc1c(O)cc2c(c1O)[C@@H]1O[C@H](CO)[C@@H](O)[C@H](O)[C@H]1OC2=O	false (0)
Cc1cc(Cl)ccc1OCCCC(=O)NO	true (1)
COc1cc2nc(N3CCN(C(=O)C4CCCO4)CC3)nc(N)c2cc1OC (stereo not given)	false (0)
CN1C(C(=O)Nc2ccccn2)=C(O)c2sccc2S1(=O)=O	false (0)

Consider the additional molecule presented here.
Could you check what this test reported for CCC(C)(Oc1ccc(C2(c3ccc(OC(C)(CC)C(=O)O)cc3)CCCCC2)cc1)C(=O)O (stereo not given) ?
false (0)
